Target Desc: Mer (Homo sapiens)
Sequence (Q12866 21-999): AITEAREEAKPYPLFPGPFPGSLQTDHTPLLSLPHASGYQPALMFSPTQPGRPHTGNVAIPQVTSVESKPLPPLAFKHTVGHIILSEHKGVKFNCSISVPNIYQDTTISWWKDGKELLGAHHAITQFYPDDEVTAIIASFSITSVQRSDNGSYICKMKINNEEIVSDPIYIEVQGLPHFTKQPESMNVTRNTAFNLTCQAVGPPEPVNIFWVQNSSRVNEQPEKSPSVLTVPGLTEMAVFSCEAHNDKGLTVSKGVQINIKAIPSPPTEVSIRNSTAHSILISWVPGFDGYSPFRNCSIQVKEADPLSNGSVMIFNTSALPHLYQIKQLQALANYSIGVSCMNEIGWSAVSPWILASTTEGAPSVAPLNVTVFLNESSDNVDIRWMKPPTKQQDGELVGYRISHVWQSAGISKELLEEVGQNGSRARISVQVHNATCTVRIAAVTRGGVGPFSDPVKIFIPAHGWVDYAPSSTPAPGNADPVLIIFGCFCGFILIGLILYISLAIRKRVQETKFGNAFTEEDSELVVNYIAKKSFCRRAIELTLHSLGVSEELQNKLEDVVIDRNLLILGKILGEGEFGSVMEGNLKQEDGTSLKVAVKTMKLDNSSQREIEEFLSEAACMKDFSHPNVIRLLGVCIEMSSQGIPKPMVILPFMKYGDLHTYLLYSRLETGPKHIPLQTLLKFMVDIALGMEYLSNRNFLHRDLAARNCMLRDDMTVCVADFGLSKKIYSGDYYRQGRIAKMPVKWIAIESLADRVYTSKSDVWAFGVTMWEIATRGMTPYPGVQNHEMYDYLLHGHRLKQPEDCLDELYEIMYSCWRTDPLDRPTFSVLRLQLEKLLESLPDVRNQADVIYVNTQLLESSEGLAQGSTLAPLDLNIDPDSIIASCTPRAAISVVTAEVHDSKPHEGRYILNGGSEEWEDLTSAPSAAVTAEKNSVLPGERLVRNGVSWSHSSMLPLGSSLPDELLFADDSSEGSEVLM
In this section, each of the molecules is paired with its reported Kd.

Tested system Mer (Homo sapiens); Kd recorded for CCOc1cn(-c2c(CN(C)C)ccnc2C)nc1C(=O)Nc1ccc(Oc2ccnc3cc(OC)c(OC)cc23)cn1 was 100 to 1000 nM

Tested system Mer (Homo sapiens); Kd recorded for COc1cc2nccc(Oc3ccc(NC(=O)c4nn(-c5cnc(N)cn5)cc4OCC(F)(F)F)c(F)c3)c2cc1OC was < 100 nM

Tested system Mer (Homo sapiens); Kd recorded for CCOc1cn(-c2nc[nH]n2)nc1C(=O)Nc1ccc(Oc2ccnc3cc(OC)c(OC)cc23)cn1 was < 100 nM

Tested system Mer (Homo sapiens); Kd recorded for CCOc1cnn(-c2ccsc2)c1C(=O)Nc1ccc(Oc2ccnc3cc(OC)c(OC)cc23)cn1 was 100 to 1000 nM

Tested system Mer (Homo sapiens); Kd recorded for CCOc1cn(C2CCN(C)CC2)nc1C(=O)Nc1ccc(Oc2ccnc3cc(OC)c(OC)cc23)cc1F was 100 to 1000 nM
